Item-by-item account of melting point
Give the value in °C but do not write °C after it.

CN(C)CC1CCN(c2nc(N3CCOCC3)c3ncnc(N(C)Cc4cccc5ccccc45)c3n2)CC1: 158
COc1ccc(C2COc3cc(O)c(O)cc3C2)cc1OC (stereo not given): 153

Data request: melting point for CC(C)Nc1nc(N)c(C(=O)NC(N)=S)nc1Cl ?
Data returned: 195

Data request: Next entry: O=[N+]([O-])c1cc(CCO)c(NCCO)c([N+](=O)[O-])c1
Data returned: 115

###

Recorded endpoint: melting point

CNC(=O)c1cccc(NC(=O)CCc2ccccc2C)c1: 131 °C

Data request: Given N#CN1CCC(c2nn(-c3ccc(C(F)(F)F)cc3)c3ccccc23)CC1 , state its recorded melting point.
Data returned: 135 to 136 °C

Data request: Another compound: CCOC(=O)c1c(N2CCN(C)CC2)c2ccccc2n(C)c1=O
Data returned: 144 to 148 °C
